Origin of measurements: ChEMBL document CHEMBL4196159

- ASSAY_INFO: physchem
- REPORTED_CONDITIONS: octanol/buffer, pH 7.4
Answer each item with its documented logD at 0.5 h.
One number for each entry.

>  <GIVEN_SMILES>
C[C@H](Nc1c(C(N)=O)nnc2ccc(-c3ccc(OCCCN4CCCC4)nc3)cc12)c1ccn(C)n1

>  <logD at 0.5 h>
1.8

$$$$
>  <GIVEN_SMILES>
C[C@H](Nc1c(C(N)=O)nnc2ccc(-c3ccc(NCCN(C)C)nc3)cc12)C1CCOCC1

>  <logD at 0.5 h>
2

$$$$
>  <GIVEN_SMILES>
CNC(=O)c1nnc2ccc(-c3ccc(OCCN(C)C)nc3)cc2c1N[C@@H](C)C1CCOCC1

>  <logD at 0.5 h>
2.5

$$$$
>  <GIVEN_SMILES>
CNC(=O)c1nnc2ccc(-c3ccc(OCCCN(C)C)nc3)cc2c1N[C@@H](C)C1CCOCC1

>  <logD at 0.5 h>
2.3

$$$$

I have 3 molecules here; please give me logD at 0.5 h for each one.
1. C[C@H](Nc1c(C(N)=O)nnc2ccc(-c3ccc(OCCCN(C)C)nc3)cc12)c1ccn(C)n1
2. CNC(=O)c1nnc2ccc(-c3ccc(OCCCN(C)C)nc3)cc2c1N[C@@H](C)c1nn(C)cc1C
3. C[C@H](Nc1c(C(N)=O)nnc2ccc(-c3ccc(OCCCN4CCCC4)nc3)cc12)C1CCOCC1

[1.7, 2.3, 1.9]

I have 2 molecules here; please give me logD at 0.5 h for each one.
1. COCc1ccc(-c2ccc3nnc(C(N)=O)c(N[C@@H](C)c4ccn(C)n4)c3c2)cn1
2. Cc1cn(C)nc1[C@H](C)Nc1c(C(N)=O)nnc2ccc(-c3ccc(OCCCN4CCCC4)nc3)cc12

1: 3; 2: 2.1

###

- ASSAY_INFO: in vitro
- REPORTED_CONDITIONS: human, liver microsomes
Classify by measured microsomal CLint at 0.5 h, 1 µM: Criterion met if it is equal to or exceeds 30 µL/min/mg, Criterion not met if it is smaller.

As a guide, the following entries are already answered.
>  <GIVEN_SMILES>
COCc1ccc(-c2ccc3nnc(C(N)=O)c(N[C@@H](C)c4nn(C)cc4C)c3c2)cn1

>  <LABEL_VALUE>
Criterion met

$$$$
>  <GIVEN_SMILES>
COCc1ccc(-c2ccc3nnc(C(N)=O)c(N[C@@H](C)C4CCOCC4)c3c2)cn1

>  <LABEL_VALUE>
Criterion met

$$$$
>  <GIVEN_SMILES>
C[C@H](Nc1c(C(N)=O)nnc2ccc(-c3ccc(OCCCN4CCCC4)nc3)cc12)c1ccn(C)n1

>  <LABEL_VALUE>
Criterion not met

$$$$
>  <GIVEN_SMILES>
COCc1ccc(-c2ccc3ncc(C(N)=O)c(N[C@@H](C)C4CCOCC4)c3c2)cn1

>  <LABEL_VALUE>
Criterion not met

$$$$
>  <GIVEN_SMILES>
CNC(=O)c1nnc2ccc(-c3ccc(OCCCN(C)C)nc3)cc2c1N[C@@H](C)c1nn(C)cc1C

>  <LABEL_VALUE>
Criterion met

$$$$

Threshold query (microsomal CLint at 0.5 h, 1 µM >= 30 µL/min/mg) on COCc1ccc(-c2ccc3nnc(C(N)=O)c(N[C@@H](C)c4ccn(C)n4)c3c2)cn1 Criterion not met

Threshold query (microsomal CLint at 0.5 h, 1 µM >= 30 µL/min/mg) on C[C@H](Nc1c(C(N)=O)nnc2ccc(-c3ccc(OCCN(C)C)nc3)cc12)c1ccn(C)n1 Criterion not met

Threshold query (microsomal CLint at 0.5 h, 1 µM >= 30 µL/min/mg) on COCc1ccc(-c2cc3c(N[C@@H](C)c4ccn(C)n4)c(C(N)=O)cnc3cc2F)cn1 Criterion not met

###

- ASSAY_INFO: physchem
- REPORTED_CONDITIONS: phosphate buffer, pH 7.4
Classify by measured solubility thermodynamic at 24 h: satisfied if it is equal to or exceeds 300 µM, not satisfied if it is smaller.

Threshold query (solubility thermodynamic at 24 h >= 300 µM) on Cc1cn(C)nc1[C@H](C)Nc1c(C(N)=O)nnc2ccc(-c3ccc(OCCCN(C)C)nc3)cc12 not satisfied

###

Answer each item with its documented logD at 0.5 h.
- ASSAY_INFO: physchem
- REPORTED_CONDITIONS: octanol/buffer, pH 7.4
Answers are plain numbers.

Past entries and their recorded results:
>  <GIVEN_SMILES>
Cc1cn(C)nc1[C@H](C)Nc1c(C(N)=O)nnc2ccc(-c3ccc(OCCCN(C)C)nc3)cc12

>  <logD at 0.5 h>
2.1

$$$$
>  <GIVEN_SMILES>
CNC(=O)c1nnc2ccc(-c3ccc(COC)nc3)cc2c1N[C@@H](C)C1CCOCC1

>  <logD at 0.5 h>
3

$$$$
>  <GIVEN_SMILES>
C[C@H](Nc1c(C(N)=O)nnc2ccc(-c3ccc(OCCN(C)C)nc3)cc12)c1ccn(C)n1

>  <logD at 0.5 h>
1.9

$$$$

I have 2 compounds here; please give me logD at 0.5 h for each one.
1. COCc1ccc(-c2ccc3nnc(C(N)=O)c(N[C@@H](C)C4CCOCC4)c3c2)cn1
2. C[C@H](Nc1c(C(N)=O)nnc2ccc(-c3ccc(OCCCN(C)C)nc3)cc12)C1CCOCC1

[2.7, 1.9]

What logD at 0.5 h value was documented for this compound, COCc1ccc(-c2ccc3nnc(C(N)=O)c(N[C@@H](C)c4nn(C)cc4C)c3c2)cn1 ? 2.8

###

- ASSAY_INFO: Volume of distribution in Han Wistar rat at 1 mg/kg, iv administered as bolus dose or 2 mg/kg, po
- Assay type: ADME, organism-based
- REPORTED_CONDITIONS: in vivo
Answer each item with its documented Vd.
One number for each entry, in L/kg.

>  <GIVEN_SMILES>
CNC(=O)c1nnc2ccc(-c3ccc(OCCCN(C)C)nc3)cc2c1N[C@@H](C)C1CCOCC1

>  <VALUE_UNITS>
L/kg

>  <Vd>
2.8

$$$$

What Vd value was documented for this compound, C[C@H](Nc1c(C(N)=O)nnc2ccc(-c3ccc(OCCCN(C)C)nc3)cc12)C1CCOCC1 ? 5.5

###

- ASSAY_INFO: Intrinsic clearance in human cryopreserved hepatocytes assessed per million cells at 1 uM measured after 30 mins by HPLC analysis
- Format: ADME, cell-based, Hepatocyte
- REPORTED_CONDITIONS: read-out: CLH
Answer each item with its documented hepatocyte CLint at 1 µM.
The number alone won't do; follow it with the unit.

>  <GIVEN_SMILES>
C[C@H](Nc1c(C(N)=O)nnc2ccc(-c3ccc(OCCCN(C)C)nc3)cc12)C1CCOCC1

>  <hepatocyte CLint at 1 µM>
2.8 µL/min/1e6 cells

$$$$

# context switch: different molecule, same hepatocyte CLint at 1 µM
What hepatocyte CLint at 1 µM value was documented for this molecule, CNC(=O)c1nnc2ccc(-c3ccc(OCCCN(C)C)nc3)cc2c1N[C@@H](C)C1CCOCC1 ? 4.1 µL/min/1e6 cells

###

- ASSAY_INFO: in vitro
- REPORTED_CONDITIONS: rat, hepatocytes
Answer each item with its documented hepatocyte CLint at 0.5 h, 1 µM.
One number for each entry, in µL/min/1e6 cells.

>  <GIVEN_SMILES>
CNC(=O)c1nnc2ccc(-c3ccc(COC)nc3)cc2c1N[C@@H](C)C1CCOCC1

>  <hepatocyte CLint at 0.5 h, 1 µM / µL/min/1e6 cells>
5.8

$$$$

I have 5 molecules here; please give me hepatocyte CLint at 0.5 h, 1 µM for each one.
1. Cc1cn(C)nc1[C@H](C)Nc1c(C(N)=O)nnc2ccc(-c3ccc(OCCCN(C)C)nc3)cc12
2. C[C@H](Nc1c(C(N)=O)nnc2ccc(-c3ccc(OCCN(C)C)nc3)cc12)c1ccn(C)n1
3. CNC(=O)c1nnc2ccc(-c3ccc(OCCCN(C)C)nc3)cc2c1N[C@@H](C)C1CCOCC1
4. Cc1cn(C)nc1[C@H](C)Nc1c(C(N)=O)nnc2ccc(-c3ccc(OCCCN4CCCC4)nc3)cc12
5. COCc1ccc(-c2ccc3nnc(C(N)=O)c(N[C@@H](C)C4CCOCC4)c3c2)cn1

12
13
5.7
8.1
5.6

I have 2 molecules here; please give me hepatocyte CLint at 0.5 h, 1 µM for each one.
1. C[C@H](Nc1c(C(N)=O)nnc2ccc(-c3ccc(OCCCN4CCCC4)nc3)cc12)c1ccn(C)n1
2. CNC(=O)c1nnc2ccc(-c3ccc(OCCN(C)C)nc3)cc2c1N[C@@H](C)C1CCOCC1

4.6
4.8

I have 4 molecules here; please give me hepatocyte CLint at 0.5 h, 1 µM for each one.
1. COCc1ccc(-c2ccc3nnc(C(N)=O)c(N[C@@H](C)c4nn(C)cc4C)c3c2)cn1
2. C[C@H](Nc1c(C(N)=O)nnc2ccc(-c3ccc(OCCCN(C)C)nc3)cc12)C1CCOCC1
3. CNC(=O)c1nnc2ccc(-c3ccc(OCCCN(C)C)nc3)cc2c1N[C@@H](C)c1nn(C)cc1C
4. C[C@H](Nc1c(C(N)=O)nnc2ccc(-c3ccc(NCCN(C)C)nc3)cc12)C1CCOCC1

[18, 3.4, 6.7, 4.2]

I have 3 molecules here; please give me hepatocyte CLint at 0.5 h, 1 µM for each one.
1. C[C@H](Nc1c(C(N)=O)nnc2ccc(-c3ccc(OCCCN4CCCC4)nc3)cc12)C1CCOCC1
2. COCc1ccc(-c2ccc3nnc(C(N)=O)c(N[C@@H](C)c4ccn(C)n4)c3c2)cn1
3. C[C@H](Nc1c(C(N)=O)nnc2ccc(-c3ccc(OCCCN(C)C)nc3)cc12)c1ccn(C)n1

1: 1.9; 2: 4.9; 3: 7
